assay: Quantitative High-Throughput drug screen in 47 multiple myeloma cell lines against the NCATS MIPE library collection: MOLP8_DSMZ cell viability assay (AID 1918977); settings: MOLP8 myeloma viability, CellTiter-Glo ATP luminescence, 48 h; series mostly up to 45.8 µM; note: nearly all actives have a fitted effect of over 45% in size; note: potency is the fitted concentration of half-maximal effect
Records with an inconclusive call do not appear. Active and inactive are the calls of the source. Calls come from the whole dose curve; as a rule, active = well fitted cell-killing curve with a large enough effect; inconclusive = small, poorly fitted or top-dose-only effect, or effect the other way; inactive = no such curve, though single readings can be large or run the other way. Non-standard residues stand in square brackets, D forms with d. Residues, ends and D or L forms follow the SMILES beside them. *: point of attachment. Sta = CC(C)C[C@H](N)[C@@H](O)CC(=O)O; Isovaleryl = CC(C)CC(=O)*

compound	Potency
COc1cc(C(C)=O)ccc1OCCCN1CCC(c2noc3cc(F)ccc23)CC1	inactive
O=c1c(O)c(-c2cc(O)c(O)c(O)c2)oc2cc(O)cc(O)c12	18.7 µM (active)
Nc1ccc(S(N)(=O)=O)cc1	inactive
O=C(c1ccccc1)c1ccc2n1CCC2C(=O)O (stereo unspecified)	inactive
O=c1c(O)c(-c2ccc(O)cc2O)oc2cc(O)cc(O)c12	inactive
Cc1ccc(NC(=O)c2ccc(CN3CCN(C)CC3)cc2)cc1Nc1nccc(-c2cccnc2)n1	inactive
O=C(OC1C[C@H]2CC[C@@H](C1)[N+]21CCCC1)C(O)(c1ccccc1)c1ccccc1 (stereo partly specified)	inactive
CCCc1cc(=O)[nH]c(=S)[nH]1	inactive
O=c1cc(N2CCOCC2)oc2c(-c3ccccc3)cccc12	7.43 µM (active)
CC(S)C(=O)NCC(=O)O (stereo unspecified)	inactive
CN(c1nccc(=O)[nH]1)C1CCN(c2nc3ccccc3n2Cc2ccc(F)cc2)CC1	inactive
CCC[C@@H]1C[C@@H](C(=O)N[C@@H]([C@H]2O[C@H](SC)[C@H](O)[C@@H](O)[C@H]2O)[C@@H](C)O)N(C)C1	inactive
Cc1cc(=O)oc2cc(O)ccc12	inactive
Cc1nc(-c2ccc(OCC(C)C)c(C#N)c2)sc1C(=O)O	2.96 µM (active)
Nc1ccn([C@@H]2O[C@H](CO)[C@@H](O)C2O)c(=O)n1 (stereo partly specified)	inactive
Cc1nc2n(c(=O)c1CCN1CCC(c3noc4cc(F)ccc34)CC1)CCCC2	inactive
CC1(C)NC(=O)N(c2ccc([N+](=O)[O-])c(C(F)(F)F)c2)C1=O	inactive
C[C@@H](c1ncncc1F)[C@](O)(Cn1cncn1)c1ccc(F)cc1F	inactive
CC1Cc2ccccc2N1NC(=O)c1ccc(Cl)c(S(N)(=O)=O)c1 (stereo unspecified)	inactive
Cc1ccc(C)c(OCCCC(C)(C)C(=O)O)c1	inactive
CC(C)(S)[C@@H](N)C(=O)O	inactive
NCCCCNCCCN	4.18 µM (active)
CCN(CCO)CCCC(C)Nc1ccnc2cc(Cl)ccc12 (stereo unspecified)	inactive
O=C1c2c(O)cc(O)cc2OC(c2ccc(O)c(O)c2)C1O (stereo unspecified)	inactive
COc1cc(OC)c(C(=O)CCCN2CCCC2)c(OC)c1	inactive
C[C@]12CCC(=O)C=C1CC[C@@H]1[C@H]2[C@@H](O)C[C@@]2(C)[C@H]1CC[C@]2(O)C(=O)CO	inactive
Nc1cc(C(Cl)=C(Cl)Cl)c(S(N)(=O)=O)cc1S(N)(=O)=O	inactive
CC(=O)NC[C@H]1CN(c2ccc(N3CCOCC3)c(F)c2)C(=O)O1	7.43 µM (active)
O=C(NOCC1CC1)c1ccc(F)c(F)c1Nc1ccc(I)cc1Cl	14.8 µM (active)
CCOC(=O)c1c(C)n(C)c2ccc(O)cc12	inactive
c1cnc2cc3c(cc2n1)C1CNCC3C1	inactive
CC(C)[N+]1(C)[C@@H]2CC[C@H]1CC(OC(=O)C(CO)c1ccccc1)C2 (stereo partly specified)	inactive
CN(C)c1ccc2nc3ccc(=[N+](C)C)cc-3sc2c1	3.32 µM (active)
O=C(NC(Cc1cc(=O)[nH]c2ccccc12)C(=O)O)c1ccc(Cl)cc1 (stereo unspecified)	inactive
CC(C)CC(=O)N[C@H](C(=O)N[C@H](C(=O)N[C@@H](CC(C)C)[C@@H](O)CC(=O)N[C@@H](C)C(=O)N[C@@H](CC(C)C)[C@@H](O)CC(=O)O)C(C)C)C(C)C (Isovaleryl-VV[Sta]A[Sta]-OH)	inactive
Cc1cc(=O)c2c(O)c3c(O)cc(=O)c4c3c3c(cc(O)c1c23)C(C)(C)C=4O	2.64 µM (active)
CCCCCCCCOc1ccccc1C(=O)Nc1ccc(C(=O)OCC[N+](C)(CC)CC)cc1	20.9 µM (active)
S=c1nc[nH]c2nc[nH]c12	inactive
CN1CCC(=C2c3ccccc3CCc3sccc32)CC1	inactive
c1ccc2[nH]c(-c3cscn3)nc2c1	inactive
Nc1nc(N)c(N=O)c(OCC2CCCCC2)n1	5.26 µM (active)

Taken from PubChem BioAssay (NCATS).
